- tgt: HLA-B*2702 (Homo sapiens, UniProt P01889, D138H/D201E/E176V/E204Q/G107R/H137Y/K202T/L105A/N104I/N87E/Q56L/Q94K/R106L/R155S/R180L/S101N/S121N/S48T/Y140D/Y33H/Y91C)
- assay-summary: HLA/peptide complex stability assay, RMA-S cells transfected with HLA-B*2702
- Format: cell-based
- test-conditions: EC50, B*2702; SD
pEC50: −log10 of the molar value. Ends that are not written are not given here.
Label Yes when pEC50 >= 4; otherwise No.

Example results:
>>> label("RRAAAAAAAI [RRA7I]")
"Yes"
>>> label("HRQDINGKEM [NP 100-109]")
"No"
>>> label("RRANNVLKNEM [NP 184-194]")
"Yes"

Task item: Item KRLPADVLKK [M2 150-159] with pEC50 of 4 or above?
Reply: No

Task item: Item KRYKGLLPKDI [NP 195-205] with pEC50 of 4 or above?
Reply: Yes
